Listing: inhibition of selected molecules
# assay text: M. tuberculosis growth inhibition, HTS (AID 449762);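 further: bacterial growth assessed after seven days of incubation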
# study conditions: M. tuberculosis H37Rv growth inhibition, 7H9 media; at 25 µM; stronger effect = higher value
Among all 330,000 compounds or so, about 1,900 (0.58%) were called active. About 4% were inconclusive and are not listed. Not all results are given here. Potency and affinity values are given separately.
Express the result in % but write the number alone.

For the molecule shown here, NC(N)=NNC(=O)c1ccccc1Cl , give the reported inhibition.
-5.25

For the molecule shown here, CC(=O)c1cnn(-c2ccccc2)c1C , give the reported inhibition.
-0.96

For the molecule shown here, CCC/C(=N/NC(=O)c1ccccc1Cl)c1ccccc1 , give the reported inhibition.
8.2

For the molecule shown here, CC(C)c1ccc(NC(=O)CCS(=O)(=O)c2cccc3nonc23)cc1 , give the reported inhibition.
6.08

For the molecule shown here, Cc1ccc(C(=O)NC(=S)N(C)C2CCCCC2)cc1 , give the reported inhibition.
62.7

For the molecule shown here, CC(=O)Nc1cc(-c2nn(C)c(=O)c3ccccc23)ccc1N1CCCCC1 , give the reported inhibition.
5.24

For the molecule shown here, Cc1ccc(NC(=O)CCC(=O)NNC(=O)CCc2ccccc2)c(C)c1 , give the reported inhibition.
8.11

For the molecule shown here, COc1cc(C(N)=O)cc(Br)c1OCc1ccccc1 , give the reported inhibition.
-3.08

For the molecule shown here, O=[N+]([O-])c1ccc(N2CCN(Cc3ccccc3)CC2)s1 , give the reported inhibition.
62.1

For the molecule shown here, CCOc1ccc(NC(=O)CSc2nnc(COc3c(C)cccc3C)o2)cc1 , give the reported inhibition.
-12.7

For the molecule shown here, O=C(c1cnn(Cc2ccccc2)c1)N1CCN(S(=O)(=O)/C=C/c2ccccc2)CC1 , give the reported inhibition.
6.35

For the molecule shown here, Cc1cc(=O)c2ccc3ccccc3c2[nH]1 , give the reported inhibition.
10.2

For the molecule shown here, CC(CN1CCC(O)CC1)c1ccccc1 (stereo not given) , give the reported inhibition.
-0.24

For the molecule shown here, Cc1[nH][nH]c(=O)c1C(c1ccc(-c2cccc(C(=O)O)c2)o1)c1c(C)[nH][nH]c1=O , give the reported inhibition.
0.63

For the molecule shown here, Cc1cc(C)c(C(=O)COC(=O)c2nn(C)c(=O)c3ccccc23)cc1C , give the reported inhibition.
-5.14

For the molecule shown here, COC(=O)C1=C(COc2ccc(C=O)cc2OC)NC(=O)NC1c1cc(C)ccc1C (stereo not given) , give the reported inhibition.
-8.91

For the molecule shown here, Cc1ccc(C)c(Cc2c(C)nc3c(C(=O)NCc4ccc5c(c4)OCO5)cnn3c2C)c1 , give the reported inhibition.
65.9

For the molecule shown here, COC(=O)N(NC(=O)C(O)(CCC(C)C)CCC(C)C)c1ccccc1 , give the reported inhibition.
2.67

For the molecule shown here, CCCCC(=O)Nc1cccc(-c2nn3c(C)nnc3s2)c1 , give the reported inhibition.
8.49

For the molecule shown here, Clc1ccccc1CNC1CN2CCC1CC2 (stereo not given) , give the reported inhibition.
-2.13

For the molecule shown here, O=C(Nc1ccccc1C(F)(F)F)c1ccc2nccnc2c1 , give the reported inhibition.
-5.96

For the molecule shown here, C/C(=N\NC(=S)NCCc1ccccc1)c1ccc(O)cc1O , give the reported inhibition.
3.81

For the molecule shown here, CN(C)S(=O)(=O)c1cccc(NC(=O)c2ccc(OC(F)(F)F)cc2)c1 , give the reported inhibition.
5.44

For the molecule shown here, COCCn1c(NCc2ccc(C)cc2)nc2c1c(=O)[nH]c(=O)n2C , give the reported inhibition.
2.2

For the molecule shown here, Cc1cc(NC(=O)c2cncc(Br)c2)ccc1NC(=O)c1cc2ccccc2o1 , give the reported inhibition.
6.1

For the molecule shown here, C=CCNC(=O)N1CCC(c2nc3ccccc3s2)CC1 , give the reported inhibition.
-8.35

====

Listing: inhibition of selected compounds
# assay text: M. tuberculosis growth inhibition, HTS (AID 449762);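 further: bacterial growth assessed after seven days of incubation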
# study conditions: M. tuberculosis H37Rv growth inhibition, 7H9 media; at 25 µM; stronger effect = higher value
In all, about 330,000 compounds went through this assay and about 1,900 (0.58%) were called active. About 4% were inconclusive and are not listed. Not all results are given here. Entries with a potency or affinity are not part of this list.
Express the result in % but write the number alone.

Sample records with inhibition:
CCCOc1ccc(-c2nnn(CC(=O)c3ccc4c(c3)OCCO4)n2)cc1; -6.75
COc1ccc(NC(=S)N2CCC(c3ccccc3)C2)cc1 (stereo unspecified); 0.04
Cc1nn(CCc2nn[nH]n2)c2nc(-c3ccccc3)cc(C(F)(F)F)c12; 3.42
C/C(O)=C/c1nc2ccccc2[nH]c1=O; 3.14
CCCCOc1cccc(C(=O)Nc2ccc(NC(=O)c3cccs3)cc2)c1; 2.91

For the compound shown here, CC(=O)c1c(C)[nH]c(C(=O)Nc2cccc(S(=O)(=O)N3CCOCC3)c2)c1C , give the reported inhibition.
-28

For the compound shown here, O=C(NCc1ccccc1Cl)c1cnc2n(c1=O)CCS2 , give the reported inhibition.
-6.04

For the compound shown here, COc1cc(C(=O)NNC(=O)c2cc(C)[nH]n2)cc(OC)c1OC , give the reported inhibition.
-0.74

For the compound shown here, Cc1ccccc1N1CCN(CCCN2C(=O)CC(=C(c3ccccc3)c3ccccc3)C2=O)CC1 , give the reported inhibition.
7.38

For the compound shown here, O=C(COc1ccc([N+](=O)[O-])cc1)NNC(=S)NC(=O)c1ccc(Br)cc1 , give the reported inhibition.
10.5

For the compound shown here, Cc1nc2scc(-c3ccc(C(C)C)cc3)c2c(=O)n1N , give the reported inhibition.
6.8

For the compound shown here, O=C(NCCN1CCCC1)c1ccc(Cn2c(=S)[nH]c3ccc(Br)cc3c2=O)cc1 , give the reported inhibition.
64.3

====

Listing: inhibition of selected compounds
# assay text: M. tuberculosis growth inhibition, HTS (AID 449762);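 further: bacterial growth assessed after seven days of incubation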
# study conditions: M. tuberculosis H37Rv growth inhibition, 7H9 media; at 25 µM; stronger effect = higher value
Hit rate of the full screen: of about 330,000 compounds, about 1,900 (0.58%) were called active. Inconclusive results (about 4%) are left out. Not all results are given here. Potency and affinity values are given separately.
Express the result in % but write the number alone.

Sample records with inhibition:
COc1cc(OC)c(C(=O)O/N=C(\N)c2ccccn2)cc1OC; 7.81
Cc1nc2ccc(Oc3ccccc3)cc2s1; 7.08
COC(=O)c1c(NC(=O)CC2SC(N)=NC2=O)sc2c1CCC(C)C2 (stereo unspecified); -3.66
C[C@]12CC[C@@H]3c4ccc(O)cc4CC[C@H]3[C@@H]1CC[C@@H]2OC(=O)CCC(=O)O; 5.59
Cc1nc2ccc(NC(=O)c3ccccc3)cc2s1; 3.89

With those in mind, consider the next compound.
For the compound shown here, O=C(CN1C(=O)NC2(CCCc3ccccc32)C1=O)NCCc1ccc(F)cc1 (stereo unspecified) , give the reported inhibition.
1.6

====

# assay text: M. tuberculosis growth inhibition, HTS (AID 449762);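 further: bacterial growth assessed after seven days of incubation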
# study conditions: M. tuberculosis H37Rv growth inhibition, 7H9 media; at 25 µM; stronger effect = higher value
About 1,900 (0.58%) of roughly 330,000 compounds were called active. About 4% were inconclusive and are not listed. Only a sample is shown. Results with a measured potency or affinity are listed apart.
readout kind: inhibition (%)
Express the result in % but write the number alone.

COc1ccc(-c2cc3nc(-c4ccccc4)cc(N4CCC(O)CC4)n3n2)cc1; 8.92

For the compound shown here, CCSC(=Nc1ccccc1)Nc1ccccc1 , give the reported inhibition.
-1.05

For the compound shown here, O=C(NC1CCCCCC1)c1cccc(COCC(F)(F)F)c1 , give the reported inhibition.
-0.72

For the compound shown here, CC1CCCCC12NC(=O)N(CC(=O)OCc1ccc(Br)cc1)C2=O (stereo unspecified) , give the reported inhibition.
5.76

For the compound shown here, O=C(NN=Cc1cccc([N+](=O)[O-])c1)c1cc(-c2cccnc2)nc2ccccc12 , give the reported inhibition.
5.59

For the compound shown here, COc1ccc(-c2cc(-n3c(C(F)(F)F)nc4ccccc43)n(CCC#N)n2)cc1 , give the reported inhibition.
5.23

====

# assay text: M. tuberculosis growth inhibition, HTS (AID 449762);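 further: bacterial growth assessed after seven days of incubation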
# study conditions: M. tuberculosis H37Rv growth inhibition, 7H9 media; at 25 µM; stronger effect = higher value
The whole screen tested about 330,000 compounds, of which about 1,900 (0.58%) were called active. Inconclusive results (about 4%) are left out. These entries were drawn from the full list. Potency and affinity values are given separately.
readout kind: inhibition (%)
Express the result in % but write the number alone.

COc1ccc(C2=Nn3c(nnc3-c3ccccc3Cl)SC2)cc1OC1CCCC1; 51.6

For the compound shown here, CCOc1ccc(-c2nn3c(-c4ccc(F)cc4)nnc3s2)cc1 , give the reported inhibition.
0.65

For the compound shown here, Cc1cc(C)c2nc(-c3ccccn3)cc(C(=O)NCCc3ccc(S(N)(=O)=O)cc3)c2c1 , give the reported inhibition.
2.93

For the compound shown here, CC(C)OC(=O)c1nnn(-c2nonc2N)c1CN1CCCCCC1 , give the reported inhibition.
-9.91

For the compound shown here, COc1ccc(-c2nn3c(-c4ccccc4)nnc3s2)cc1 , give the reported inhibition.
36.9

For the compound shown here, CCOc1cc(N)c(Cl)cc1C(=O)NCC1CN(Cc2ccc(F)cc2)CCO1 (configuration not stated) , give the reported inhibition.
-1.66

All figures here come from PubChem BioAssay AID449762.
